- test.details: Negative inotropic activity in New Zealand White rabbit isolated atria assessed as reduction of tissue contractility after 15 mins
- Design: species or system Oryctolagus cuniculus, Cardiac atrium
- test.settings: 0.25 h
Counter-ions that a name gives are not always drawn.
Records here are stratified by pED40; strata: Low = under 4, Medium = from 4 up to 5, High = 5 and over

Query: Sort into band: CC(C)NCC(O)COc1ccc(Cl)c2ccccc12 (stereo unspecified)
Result: High

Query: Sort into band: COCCCNCC(O)COc1cccc2ccccc12 (stereo unspecified)
Result: High

Query: Sort into band: CC(C)NCC(O)COc1cccc2ccccc12 (stereo unspecified) [PROPRANOLOL]
Result: High

Query: Sort into band: CC(C)NCC(O)COc1ccc(O)c2ccccc12 (stereo unspecified) [4-HYDROXYPROPRANOLOL SULFATE]
Result: Medium

Query: Sort into band: Cl.NCCCNCC(O)COc1cccc2ccccc12 (stereo unspecified)
Result: Medium

Query: Sort into band: CC(C)NCC(O)COc1ccc(S(N)(=O)=O)c2ccccc12.Cl (stereo unspecified)
Result: Low

Query: Sort into band: Br.CC(C)NCC(O)COc1c(Br)cc(Br)c2ccccc12 (stereo unspecified)
Result: High

Query: Sort into band: Cl.O=C(O)CCCNCC(O)COc1cccc2ccccc12 (stereo unspecified)
Result: Low

Query: Sort into band: CCCCNCC(O)COc1cccc2ccccc12 (stereo unspecified)
Result: High

Query: Sort into band: C[N+](C)(C)CCCNCC(O)COc1cccc2ccccc12.Cl.[Cl-] (stereo unspecified)
Result: Low
